Recorded values, source paper PMC4077163.

Molecular target: Grb2 SH2 domain (Homo sapiens, UniProt P62993)
Sequence (P62993 60-152 limits assumed): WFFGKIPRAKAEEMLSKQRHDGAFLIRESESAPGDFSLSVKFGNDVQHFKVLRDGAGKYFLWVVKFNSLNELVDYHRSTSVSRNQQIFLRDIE
Assay: Isothermal titration calorimetry
Assay type: binding
Conditions: ITC, 25 °C, HEPES (50 mM), NaCl (150 mM), pH 7.45 ± 0.05
Square brackets hold non-standard residues; d marks the D form. Peptide text beside a SMILES is read from it. * marks the point of attachment. pY = N[C@@H](Cc1ccc(OP(=O)(O)O)cc1)C(=O)O; Hydrocinnamoyl = O=C(CCc1ccccc1)*; Ac6c = NC1(C(=O)O)CCCCC1; Cbz = O=C(OCc1ccccc1)*
I'd appreciate it if you could supply ΔG° values for the items below.
Numbers only, in kcal/mol.

See these solved cases before continuing.
- CC(=O)N[C@@H](Cc1ccc(OP(=O)(O)O)cc1)C(=O)NC1(C(=O)N[C@@H](CC(N)=O)C(N)=O)CCCCC1 [Compound 7] (HELM PEPTIDE1{[ac].[O=C([C@H](Cc1ccc(OP(=O)(O)O)cc1)N[*:1])[*:2]].[O=C(C1(N[*:1])CCCCC1)[*:2]].N.[am]}$$$$V2.0): -9.3
- NC(=O)C[C@H](NC(=O)C1(NC(=O)[C@H](Cc2ccc(OP(=O)(O)O)cc2)NC(=O)OCc2cccc(N)c2)CCCCC1)C(N)=O: -9.5
- NC(=O)C[C@H](NC(=O)C1(NC(=O)[C@H](Cc2ccc(OP(=O)(O)O)cc2)NC(=O)CCC2CCCCC2)CCCCC1)C(N)=O: -10.2

Field: ΔG°. Fill in for each record below.
1. NC(=O)C[C@H](NC(=O)C1(NC(=O)[C@H](Cc2ccc(OP(=O)(O)O)cc2)NC(=O)CCc2ccccc2)CCCCC1)C(N)=O [Compound 11] (Hydrocinnamoyl-[pY]-[Ac6c]-Asn-NH2)
2. Cn1cc(CCC(=O)N[C@@H](Cc2ccc(OP(=O)(O)O)cc2)C(=O)NC2(C(=O)N[C@@H](CC(N)=O)C(N)=O)CCCCC2)c2ccccc21
3. NC(=O)C[C@H](NC(=O)C1(NC(=O)[C@H](Cc2ccc(OP(=O)(O)O)cc2)NC(=O)OCc2ccccc2)CCCCC1)C(N)=O [Compound 8] (Cbz-[pY]-[Ac6c]-Asn-NH2)

-10.1
-9.6
-9.3

* * *

Data export: pKd values recorded with Grb2 SH2 domain (Homo sapiens).
Square brackets hold non-standard residues; d marks the D form. Peptide text beside a SMILES is read from it. * marks the point of attachment. pY = N[C@@H](Cc1ccc(OP(=O)(O)O)cc1)C(=O)O; Hydrocinnamoyl = O=C(CCc1ccccc1)*; Ac6c = NC1(C(=O)O)CCCCC1; Cbz = O=C(OCc1ccccc1)*
One number for each entry, as −log10 of the molar value.

* NC(=O)C[C@H](NC(=O)C1(NC(=O)[C@H](Cc2ccc(OP(=O)(O)O)cc2)NC(=O)CCC2CCCCC2)CCCCC1)C(N)=O | 7.46
* NC(=O)C[C@H](NC(=O)C1(NC(=O)[C@H](Cc2ccc(OP(=O)(O)O)cc2)NC(=O)CCc2ccccc2)CCCCC1)C(N)=O [Compound 11] (Hydrocinnamoyl-[pY]-[Ac6c]-Asn-NH2) | 7.37
* CC(=O)N[C@@H](Cc1ccc(OP(=O)(O)O)cc1)C(=O)NC1(C(=O)N[C@@H](CC(N)=O)C(N)=O)CCCCC1 [Compound 7] (HELM PEPTIDE1{[ac].[O=C([C@H](Cc1ccc(OP(=O)(O)O)cc1)N[*:1])[*:2]].[O=C(C1(N[*:1])CCCCC1)[*:2]].N.[am]}$$$$V2.0) | 6.85
* NC(=O)C[C@H](NC(=O)C1(NC(=O)[C@H](Cc2ccc(OP(=O)(O)O)cc2)NC(=O)OCc2ccccc2)CCCCC1)C(N)=O [Compound 8] (Cbz-[pY]-[Ac6c]-Asn-NH2) | 6.81
* NC(=O)C[C@H](NC(=O)C1(NC(=O)[C@H](Cc2ccc(OP(=O)(O)O)cc2)NC(=O)OCc2cccc(N)c2)CCCCC1)C(N)=O | 6.94

Then there is this compound:
The recorded pKd for entry `Cn1cc(CCC(=O)N[C@@H](Cc2ccc(OP(=O)(O)O)cc2)C(=O)NC2(C(=O)N[C@@H](CC(N)=O)C(N)=O)CCCCC2)c2ccccc21` equals 7.06
